- target_or_test_system: T1, Human TNFa N-his trimers (human, UniProt P01375 77-233)
- T1 construct: Captured at 5 nM on an NTA sensor chip by the N-terminal his-tags; also called His-tagged TNF (produced at ESBATech); not shown: N-terminal his-tag
- T1 sequence (P01375 77-233 limits assumed): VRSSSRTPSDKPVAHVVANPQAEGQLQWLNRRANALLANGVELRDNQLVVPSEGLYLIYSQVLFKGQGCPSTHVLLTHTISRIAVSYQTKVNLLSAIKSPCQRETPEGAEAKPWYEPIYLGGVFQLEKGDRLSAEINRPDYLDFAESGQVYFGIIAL
- assay_method_text: SPR BIAcore T100, His-tagged human TNF trimers captured on NTA chip, scFv as analyte
Exercise: state measured Kd for each of the binders provided.
Answer with the value and then the unit.

Below, each entry is followed by its recorded Kd result.
EP15_min (scFv) EIVMTQSPSTLSASVGDRVIITCQASENIYTSLAWYQQKPGKAPKLLIYSASTLASGVPSRFSGSGSGAEFTLTISSLQPDDFATYYCQQGFATSNVENPFGQGTKLTVLGGGGGSGGGGSGGGGSGGGGSEVQLVESGGGLVQPGGSLRLSCAASGFTFSRYGVSWVRQAPGKGLEWVSAIGETGRAYYANWAKSRFTISRDNSKNTLYLQMNSLRAEDTAVYYCAKGEEFNNGWGAFNIWGQGTLVTVSS; 262 nM
EP42_max (scFv) EIVMTQSPSTLSASVGDRVIITCQSTESVYKNNYLAWYQQKPGKAPKLLIYDASTLASGVPSRFSGSGSGTEFTLTISSLQPDDFATYYCAGYYRSGFGTANGSFGQGTKLTVLGGGGGSGGGGSGGGGSGGGGSEVQLVESGGGSVQPGGSLRLSCTVSGIDLRNDAISWVRQAPGKGLEWVSYISDWGIKYYASWVKGRFTISKDTSKNTVYLQMNSLRAEDTATYYCARGAPGAGDNGIWGQGTTVTVSS; 3.46 nM
EP34_max (scFv) EIVMTQSPSTLSASLGDRVIITCQSSQSVYGNIWMAWYQQKSGKAPKLLIYQASKLASGVPSRFSGSGSGAEFSLTISSLQPDDFATYYCQGNFNTGDRYAFGQGTKLTVLGGGGGSGGGGSGGGGSGGGGSEVQLVESGGGLVQPGGSLRLSCTASGFTISRSYWICWVRQAPGKGLEWVACIYGDNDITPLYANWAKGRFPVSTDTSKNTVYLQMNSLRAEDTAVYYCARLGYADYAYDLWGQGTLVTVSS; 0.0286 nM
EP6_max (scFv) EIVMTQSPSTLSASVGDRVIITCQASESIYSGLAWYQQKPGKAPKLLIYQASTLASGVPSRFSGSGSGTDFTLAISSLQPDDFATYYCQQGFGTSNVENPFGQGTKLTVLGGGGGSGGGGSGGGGSGGGGSEVQLVESGGGLVQPGGSLRLSCTVSGFSLSRYGVSWVRQAPGKGLEWVGTIGEAGRAYYANWARSRSTISRDTSKNTVYLQMNSLRAEDTAVYYCARGEVFNNGWGAFNIWGQGTLVTVSS; 0.512 nM

Please examine the following record next.
q: Given EP1_max (scFv) EIVMTQSPSTLSASVGDRVIITCQSTESVYKNNYLAWYQQKPGKAPKLLIYDASTLASGVPSRFSGSGSGTEFTLTISSLQPDDFATYYCAGYYRSGSGTANGSFGQGTKLTVLGGGGGSGGGGSGGGGSGGGGSEVQLVESGGGSVQPGGSLRLSCTVSGIDLSNDAISWVRQAPGKGLEWVAYISDWSIRYYANWAQGRFTISKDTSKNTVYLQMNSLRAEDTATYYCARGAPGAGDNGIWGQGTTVTVSS , state its recorded Kd.
a: 56.9 nM
